meta.source: patent US20150037339A1

TARGET_OF_ASSAY: T1, Activin A (human, UniProt P08476 311-426)
T1 sequence: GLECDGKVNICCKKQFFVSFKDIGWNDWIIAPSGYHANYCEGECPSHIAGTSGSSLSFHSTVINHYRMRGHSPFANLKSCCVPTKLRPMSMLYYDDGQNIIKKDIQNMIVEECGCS
METHOD_DESCRIPTION: cell-based or functional assay
VALUE_TYPE: IC50 [M], inhibition of 100 pM Activin A in A204/CAGAx12-Luc Smad2/3-luciferase bioassay (M)
Numbers only here, please. The scale is M.

| BINDER | UNIT_ABBREVIATION | NUMERIC_VALUE |
| --- | --- | --- |
| H4H10429P (antibody, human IgG4, V domains shown) VH: QVQLVESGGGVVQPGRSLRLSCVASGFTVSSYGIHWVRQAPGKGLEWVSVIWYDGRNKDYADSVKGRFTISRDNSKNTVYLEMKGLRAEDTALYYCARDKTGDFDSWGQGTLVTVSS VL: DIQMTQSPSSLSASVGDRVTITCRASQNINSFLSWYQQKPGKAPKFLIYDASSIQSGAPSRFSGSGSGTDFTLTISSLQPEDFATYYCQQSYSSPFTFGQGTKLEIK | M | 1.6e-10 |
| H4H10426P (antibody, human IgG4, V domains shown) VH: EVQLVESGGNLVQSGRSLRLSCTASGFAFDDFAMHWVRQVPGKGLEWVSGISWNSDTIGYADSVKGRFTISRDNAQNSLFLQMDSLRAEDTALYYCVKDMVRGLIGYYYYGMDVWGQGTTVTVSS VL: EIVLTQSPAILSLSPGERAILSCRASQSIYTYLSWYQQTPGRAPRLLIYETSSRATGIPARFIGSGSGTDFTLTISSLEPEDFAFYYCQHRSDWPPTFGQGTKLEIK | M | 2.3e-10 |
| H4H10424P (antibody, human IgG4, V domains shown) VH: QVQLVESGGGVVQPGRSLRLSCAASGFTFSSYGMHWVRQAPGKGLEWVAVIWYDGSNKYNADSVKGRFTISRDNSKNTVYLQMNSLRAEDTAVYYCARARNYDILTGYYNLGMDVWGQGTTVTVSS VL: DIQMTQSPSSLSASVGDRVTITCRASQGIRNDLGWYQQKPGKAPKRLIYAASSLQSGVPSRFSGSGSGTEFTLTISSLQPEDFATYYCLQHNSYPYTFGQGTKLEIK | M | 7.6e-10 |

stdin: Look up IC50 [M], inhibition of 100 pM Activin A in A204/CAGAx12-Luc Smad2/3-luciferase bioassay of H4H10430P (antibody, human IgG4, V domains shown) VH: EVQLVESGGGLVQPGRSLRLSCKASGFAFDDFAMHWVRQAPGKGLEWVSGIVWNSGDIGYADSVKGRFTISRDNAKNSLYLQLNSLRTEDTALYFCVKDMVRGLMGFNYYGMDVWGQGTTVTVSS VL: EIVLTQSPATLSLSPGERATLSCRASQTISTYLVWYRQRPGQAPSLLIYDASNRATDIPARFSGSGSGTDFTLTISSLEPEDFAVYYCQQRSNWPITFGQGTRLEIK and report it.
stdout: 6.1e-11
